I'd appreciate it if you could supply concentration at 1 h values for the items below.
protocol-description: Rat cerebrospinal fluid (CSF) pharmacokinetic properties
Format: in vivo
experimental-parameters: male, Sprague-Dawley, CSF, PO 10 mg/kg in PEG400, 1 h post-dosing, read-out: CSF Conc (nM @ 1 h)
Note: unit nM is implicit; provide only the numeric part.

Give me measured concentration at 1 h, please, for this molecule: Fc1ccccc1Cn1nc(-c2nc(C(F)(F)F)n[nH]2)c2cccnc21 [Compound I-2]
62.9

Give me measured concentration at 1 h, please, for this molecule: Fc1ccccc1Cc1nc(-c2nc(C(F)(F)F)n[nH]2)c2cccnn12 [Compound I-6]
0.78

Give me measured concentration at 1 h, please, for this molecule: FC(F)(F)c1n[nH]c(-c2nc(Cc3cncnc3)c3ccccn23)n1 [Compound I-5]
446

Give me measured concentration at 1 h, please, for this molecule: Cc1ncc(Cc2nc(-c3nc(C(F)(F)F)n[nH]3)n3ccccc23)cn1 [Compound I-4]
180

Origin of values: patent US11690828B2
